- assayTarget: human steroid 5α-reductase (Homo sapiens, UniProt P31213)
- Construct: using tissue from hyperplastic human prostates; from tissue; host or cells: frozen human prostates (hyperplastic), washed particulate fraction from differential centrifugation
- Sequence (P31213 whole entry): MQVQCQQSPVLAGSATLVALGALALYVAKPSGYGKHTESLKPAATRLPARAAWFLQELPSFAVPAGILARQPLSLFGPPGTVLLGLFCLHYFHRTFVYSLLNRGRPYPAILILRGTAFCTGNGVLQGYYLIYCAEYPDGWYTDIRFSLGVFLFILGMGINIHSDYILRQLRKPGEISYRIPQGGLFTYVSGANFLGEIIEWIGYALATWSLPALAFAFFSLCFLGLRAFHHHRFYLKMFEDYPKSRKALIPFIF
- assayDetails: Inhibition of human prostatic steroid 5α-reductase ([14C]-testosterone conversion, Dixon analysis)
- Format: biochemical
- experimentalParameters: hyperplastic human prostate particulate, pH 5.0, 37° C., 20 to 30 minutes; competitive inhibition against testosterone assumed; read-out: Ki (inhibition constant of human prostatic steroid 5α-reductase)
pKi: −log10 of the molar value.
experimentalReadout: pKi

Test item "CC(C)N(C(=O)[C@H]1CC[C@H]2[C@@H]3CC=C4C=C(P(=O)(O)O)CC[C@]4(C)[C@H]3CC[C@]12C)C(C)C" ; human steroid 5α-reductase (Homo sapiens, UniProt P31213); reported pKi was 7.40 to 7.82
